tested on: alkaline protease ALTP; assay type: biochemical, Alkaliphillus transvaalensis; conditions: concentration of 1 mM

>  <COMPOUND>
[Cl][Sn][Cl] [SnCl2]

>  <inhibition by metal ion>
not inhibited

$$$$
>  <COMPOUND>
[Cl][Ni][Cl] [NiCl2]

>  <inhibition by metal ion>
not inhibited

$$$$
>  <COMPOUND>
[Cl-].[Cl-].[Mg+2] [MgCl2]

>  <inhibition by metal ion>
not inhibited

$$$$
>  <COMPOUND>
[Cl][Pb][Cl] [PbCl2]

>  <inhibition by metal ion>
not inhibited

$$$$
>  <COMPOUND>
[Cl-].[Cl-].[Zn+2] [ZnCl2]

>  <inhibition by metal ion>
not inhibited

$$$$
>  <COMPOUND>
[Ca+2].[Cl-].[Cl-] [CaCl2]

>  <inhibition by metal ion>
not inhibited

$$$$
>  <COMPOUND>
[Cl][Mn][Cl] [MnCl2]

>  <inhibition by metal ion>
not inhibited

$$$$
>  <COMPOUND>
[Cl-].[Li+] [LiCl2]

>  <inhibition by metal ion>
not inhibited

$$$$
>  <COMPOUND>
[Cl-].[K+] [KCl]

>  <inhibition by metal ion>
not inhibited

$$$$
>  <COMPOUND>
[Cl][Cd][Cl] [CdCl2]

>  <inhibition by metal ion>
not inhibited

$$$$
>  <COMPOUND>
[Cl][Cu][Cl] [CuCl2]

>  <inhibition by metal ion>
not inhibited

$$$$
>  <COMPOUND>
[Ba+2].[Cl-].[Cl-] [BaCl2]

>  <inhibition by metal ion>
not inhibited

$$$$
